# maps each entry to its displacement
- tgt: Bcl-2-like protein 10 (Homo sapiens) (UniProt Q9HD36)
- Sequence (Q9HD36 whole entry, looked up): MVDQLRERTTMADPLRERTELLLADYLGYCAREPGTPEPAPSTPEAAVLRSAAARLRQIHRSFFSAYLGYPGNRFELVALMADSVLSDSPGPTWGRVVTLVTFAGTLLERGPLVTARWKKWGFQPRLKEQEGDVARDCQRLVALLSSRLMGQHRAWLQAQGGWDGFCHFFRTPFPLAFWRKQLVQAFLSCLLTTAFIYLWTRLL
- measurement-description: TR3 peptide-Bcl-B binding displacers, biochemical primary FP assay, phenotype converters (AID 1240);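 also: 0% = Bcl-B with tracer peptide and DMSO and 100% = tracer peptide lacking Bcl-B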
- experimental-context: GST-Bcl-B / FITC-TR3 peptide fluorescence polarization; stronger effect = higher value; compound at 3.75 mg/L
Out of some 50,000 compounds screened, about 800 (1.6%) showed an effect of 50% or more. What follows is part of a selection rich in strong results, with near analogues and random picks from the rest.
The reply should be a number in %, with the unit left off.

Solved entries (count: 2):
>>> measurement("O=C1/C(=C/c2ccc(-c3ccccc3[N+](=O)[O-])o2)SC(=S)N1c1cccc(C(F)(F)F)c1")
-3
>>> measurement("O=C(O)CSc1nnc(-c2ccco2)n1-c1ccccc1")
0.4

-- ask Please report the recorded displacement for CC1(C)CC(=O)C(Sc2ccc([N+](=O)[O-])cc2)=C(O)C1 .
-- reply 17

-- ask Okay, and O=C(NN1C(=O)/C(=C/c2ccc(O)cc2)SC1=S)c1ccccc1Br ?
-- reply -72.2

-- ask Okay, and CN(C)c1ccc(C2/C(=C(\O)c3ccc(F)cc3)C(=O)C(=O)N2CCCCCC(=O)O)cc1 (stereo not drawn) ?
-- reply 9.1

====

- tgt: Bcl-2-like protein 10 (Homo sapiens)
- measurement-description: TR3 peptide-Bcl-B binding displacers, biochemical primary FP assay, phenotype converters (AID 1240);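 also: 0% = Bcl-B with tracer peptide and DMSO and 100% = tracer peptide lacking Bcl-B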
- experimental-context: GST-Bcl-B / FITC-TR3 peptide fluorescence polarization; stronger effect = higher value; compound at 3.75 mg/L
The whole screen tested about 50,000 compounds, of which about 800 (1.6%) showed an effect of 50% or more. Many of the other results were omitted from the sample, so strong results are more common in it than they were.
# maps each entry to its displacement
Lab note: write values as number then unit, every time.

Solved entries (count: 5):
>>> measurement("C=C(C)COc1ccccc1/C=C1\\N=C(c2cccs2)OC1=O")
"0.7%"
>>> measurement("Cc1ccc(/C=C/C(=O)c2c3c(c(C)[nH]c2=O)CCCC3)cc1")
"49.3%"
>>> measurement("CNC(=O)c1c(-c2ccccc2)oc2ccc(O)cc12")
"10.3%"
>>> measurement("Cc1[nH]c(=O)c(C(=O)/C=C/c2ccccc2Cl)c2c1CCCC2")
"11%"
>>> measurement("O=C1OC(c2cccs2)=N/C1=C\\c1cccc(Cl)c1Cl")
"29.5%"

-- ask Please report the recorded displacement for CC(=O)n1cc(/C=C2\N=C(c3ccc(C(C)(C)C)cc3)OC2=O)c2ccccc21 .
-- reply 72.1%

-- ask Okay, and CC(=O)n1cc(/C=C2\N=C(c3ccccc3F)OC2=O)c2ccccc21 ?
-- reply 7.6%

-- ask Okay, and CCOc1ccc(/C=C2\N=C(c3ccccc3F)OC2=O)cc1 ?
-- reply 11%

-- ask Okay, and Cc1[nH]c(=O)c(C(=O)/C=C/c2cccs2)c2c1CCCC2 ?
-- reply 119%

-- ask Okay, and O=C(c1ccccc1)N1CCN(CCCc2ccccc2)CC1 ?
-- reply -9.4%

-- ask Okay, and CC(C)CN1C(=O)c2ccc(C(=O)Nc3ccc(Br)cc3C(=O)O)cc2C1=O ?
-- reply -12.5%

====

- tgt: Bcl-2-like protein 10 (Homo sapiens)
- measurement-description: TR3 peptide-Bcl-B binding displacers, biochemical primary FP assay, phenotype converters (AID 1240);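 also: 0% = Bcl-B with tracer peptide and DMSO and 100% = tracer peptide lacking Bcl-B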
- experimental-context: GST-Bcl-B / FITC-TR3 peptide fluorescence polarization; stronger effect = higher value; compound at 3.75 mg/L
In all, about 50,000 compounds went through this assay and about 800 (1.6%) showed an effect of 50% or more. The list comes from a sample in which strong results are over-represented; it also holds close analogues and randomly drawn compounds.
assay-metric: displacement (%)
The reply should be a number in %, with the unit left off.

Solved entries (count: 3):
>>> measurement("O=C(CSc1nc2sc3c(c2c(=O)[nH]1)CCCC3)NCc1ccccn1")
-0.6
>>> measurement("FC(F)(F)c1ccccc1CN1CCN(Cc2c[nH]c3ccccc23)CC1")
-5.2
>>> measurement("Cc1c(N2C(=O)/C(=C/c3cccs3)SC2=S)c(=O)n(-c2ccccc2)n1C")
8.6

Moving on to another compound below.
-- ask What reported displacement corresponds to COC(=O)c1cccc(S(=O)(=O)N2CCOCC2)c1 on Bcl-2-like protein 10 (Homo sapiens)?
-- reply -16

====

- tgt: Bcl-2-like protein 10 (Homo sapiens)
- measurement-description: TR3 peptide-Bcl-B binding displacers, biochemical primary FP assay, phenotype converters (AID 1240);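 also: 0% = Bcl-B with tracer peptide and DMSO and 100% = tracer peptide lacking Bcl-B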
- experimental-context: GST-Bcl-B / FITC-TR3 peptide fluorescence polarization; stronger effect = higher value; compound at 3.75 mg/L
Screen size: about 50,000 compounds; about 800 (1.6%) showed an effect of 50% or more. Only a selection was taken, and strong results are over-represented in it overall.
assay-metric: displacement

-- ask Please report the recorded displacement for O=C(NCC1CCCO1)c1ccc(S(=O)(=O)N2CCCCC2)cc1 (stereo not given) .
-- reply -4.5%

-- ask Okay, and CCOc1cccc(C(=O)Nc2cc(-c3nc4cc(C)cc(C)c4o3)ccc2C)c1 ?
-- reply 9.5%

-- ask Okay, and COc1ccc(C2/C(=C(\O)c3ccc(Cl)cc3)C(=O)C(=O)N2c2cccnc2)c(OC)c1 (stereo not given) ?
-- reply -7.1%

-- ask Okay, and COc1ccc(NC(=S)NC(=O)c2cccs2)cc1 ?
-- reply -9.3%

-- ask Okay, and COc1cc(OC)cc(C(=O)O/N=C(\c2ccncc2)c2ccc([N+](=O)[O-])cc2)c1 ?
-- reply 10.5%

====

- tgt: Bcl-2-like protein 10 (Homo sapiens) (UniProt Q9HD36)
- measurement-description: TR3 peptide-Bcl-B binding displacers, biochemical primary FP assay, phenotype converters (AID 1240);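 also: 0% = Bcl-B with tracer peptide and DMSO and 100% = tracer peptide lacking Bcl-B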
- experimental-context: GST-Bcl-B / FITC-TR3 peptide fluorescence polarization; stronger effect = higher value; compound at 3.75 mg/L
Screen size: about 50,000 compounds; about 800 (1.6%) showed an effect of 50% or more. The list comes from a sample in which strong results are over-represented; it also holds close analogues and randomly drawn compounds.
# maps each entry to its displacement
The reply should be a number in %, with the unit left off.

Solved entries (count: 10):
>>> measurement("CC1=C(C#N)c2nc(N)c(C#N)c(C)c2/C1=C\\c1cc([N+](=O)[O-])ccc1Cl")
0.6
>>> measurement("O=c1cc(C(F)(F)C(F)(F)F)c2cc3c4c(c2o1)CCCN4CCC3")
66.7
>>> measurement("Cc1ccc(/C(O)=C/c2nc3ccc([N+](=O)[O-])cc3oc2=O)o1")
-6.6
>>> measurement("Cc1cccc(N2C(=O)Cn3c2nc2c3c(=O)n(C)c(=O)n2C)c1")
-5.8
>>> measurement("O=C1OC(c2ccc(F)cc2)=N/C1=C\\c1ccc(Cl)cc1")
4.3
>>> measurement("CCOC(=O)C1=C(C)N=c2s/c(=C\\C=C\\c3ccccc3)c(=O)n2C1c1ccc(OC(C)=O)cc1 (centres undefined)")
16.9
>>> measurement("COc1ccc(C2=NC(=Cc3ccc(Br)cc3)C(=O)O2)cc1")
22.5
>>> measurement("Nc1cccc2c1C(=O)c1c(N)cccc1C2=O")
-4.2
>>> measurement("O=C(O)c1ccccc1C(=O)c1ccc(Cl)c(N2C(=O)CCC2=O)c1")
-1.3
>>> measurement("Cc1c(C=O)c(=O)oc2c3c4c(cc12)CCCN4CCC3")
148

-- ask Please report the recorded displacement for C=CCNC(=O)Nc1ccc2nccnc2c1 .
-- reply 8.7

-- ask Okay, and CC(=O)c1cccc(NC(=O)/C(=C\c2cccnc2)NC(=O)c2ccccc2)c1 ?
-- reply -5.3

-- ask Okay, and CN1CCN(Cc2c(O)ccc3c4c(c(=O)oc23)CCC4)CC1 ?
-- reply -0.5

-- ask Okay, and COC(=O)C1=C(C)N(c2ccccc2)/C(=C\c2ccc(OCC(=O)Nc3ccccc3OC)cc2)C1=O ?
-- reply 55.5

-- ask Okay, and CN(C)/C=C1\N=C(c2cccc(Br)c2)OC1=O ?
-- reply 0.8

-- ask Okay, and C=CCOc1ccc(/C=C2\C(=O)C(C(=O)OC)=C(C)N2c2ccc(F)cc2)cc1 ?
-- reply 127

-- ask Okay, and O=C1C(Nc2ccccc2)=CC(c2cccc(F)c2)N1c1ccccc1 (centres undefined) ?
-- reply 14.1

-- ask Okay, and CCOC(=O)c1ccc(NC(=O)CC)cc1 ?
-- reply 4.7

-- ask Okay, and CCN(CC)CCN1C(=O)C(O)=C(C(=O)/C=C/c2ccccc2)C1c1ccccc1[N+](=O)[O-] (centres undefined) ?
-- reply 3.2

-- ask Okay, and CC1CCc2c(nc3ccccc3c2C(=O)O)C1 (centres undefined) ?
-- reply -14.7

-- ask Okay, and C=CCNC(=O)C1CC(=O)N(c2ccc(C)cc2)C1 (centres undefined) ?
-- reply -7.4

-- ask Okay, and CCOC(=O)C1=C(c2ccccc2)N=c2s/c(=C\c3cccnc3)c(=O)n2C1c1cccc(OC)c1OC (centres undefined) ?
-- reply 5.1

-- ask Okay, and Cc1ccc(/C=C2\N=C(c3ccc(Cl)cc3)OC2=O)cc1 ?
-- reply 0

-- ask Okay, and CCOC(=O)C1=C(c2ccccc2)N=c2s/c(=C\c3ccco3)c(=O)n2C1c1cccc(OC)c1OC (centres undefined) ?
-- reply 76.4

-- ask Okay, and Cc1ccc(C2=N/C(=C\c3ccccc3)C(=O)O2)cc1 ?
-- reply -7.3

-- ask Okay, and COc1cc(CNc2ccc(Br)cc2C)cc(OC)c1OC ?
-- reply 13.2

-- ask Okay, and O=C(Nc1nc2ccc(Br)cc2s1)c1cccs1 ?
-- reply -3.7

-- ask Okay, and CNc1c(Cl)c(Cl)c(Cl)c2c1C(=O)c1ccccc1C2=O ?
-- reply 11.2
